# log10 of t1/2 listing for each entry below
assay.target: T1, natural Fel d1 (Indoor Biotech, #NA-FD1-2) (cat, UniProt P30438 23-92; P30440 18-109)
T1 construct: Bought natural heterodimeric glycoprotein, chains linked by disulfide bonds; also called nFel d1; nFel d 1
T1 sequence (P30438 other isoform, or with tags, fused parts or gaps, chain 1 of 2): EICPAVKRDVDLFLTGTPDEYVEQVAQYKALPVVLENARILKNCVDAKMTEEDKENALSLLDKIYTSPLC
T1 sequence (P30440 18-109, chain 2 of 2): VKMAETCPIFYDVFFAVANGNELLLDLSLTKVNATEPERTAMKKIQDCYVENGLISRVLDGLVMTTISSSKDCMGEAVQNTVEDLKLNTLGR
method.description: SPR (Biacore), mAb captured, natural Fel d1 injected, 25 C;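 note: rate constants obtained by fitting association and dissociation phases to a one-to-one binding model, with Kd and half-life derived from those rate constants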
measured.property: log10 of t1/2 (log10 of the value in min)

binder	measured.property	result.number
H1M1241N (antibody, V domains shown, chimeric: human variable domains, mouse constant domains (H1M prefix, mouse Fc)) VH: EVQLVESGGGLVKPGGSLRLSCAASGFTFSSYSMNWVRQAPGKGLEWVSSISSRSSYIYYADSVKGRFTISRDNAKNSLYLQMNSLRAEDTAVYYCARDHIVVVPGASYYYYGMDVWGQGTTVTVSS VL: DIQMTQSPSSLSASVGDRVTITCRASQGIRNDLGWYQQKPGKAPKRLISAASSLQSGVPSRFSGSGSGTEFTLTISSLQPEDFATYYCLQHNSYPLTFGGGTKVEIK	log10 of t1/2	1.23
H2M1233N (antibody, mouse IgG2, V domains shown, chimeric: human variable domains, mouse IgG2 Fc (H2M prefix)) VH: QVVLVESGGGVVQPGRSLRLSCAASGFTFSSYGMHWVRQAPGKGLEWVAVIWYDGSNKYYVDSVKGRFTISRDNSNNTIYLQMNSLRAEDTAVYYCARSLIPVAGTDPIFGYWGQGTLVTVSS VL: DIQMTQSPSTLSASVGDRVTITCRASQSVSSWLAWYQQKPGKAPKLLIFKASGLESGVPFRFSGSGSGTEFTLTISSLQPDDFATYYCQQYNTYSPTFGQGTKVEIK	log10 of t1/2	1.52
H1M1230N (antibody, V domains shown, chimeric: human variable domains, mouse constant domains (H1M prefix, mouse Fc)) VH: EVQLVESGGGLVQPGGSLRLSCTASGFIFSNFWMTWVRQAPGKGLEWVANIKQDGSETYCVDSVKGRFTISRDHAKNSLFLQMNSLRAEDTAVYYCARGAGTIYYYGMDVWGQGTTVIVSS VL: DIQMTQSPSSVSASVGDRLTITCRASQDISSWLTWYQQKPGKAPNLLIYAASGLQSGVPSRFSGSGSGTDFTLTISNLQPEDFATYYCQQANSFPLTFGQGTRLEIK	log10 of t1/2	1.11
H2M1242N (antibody, mouse IgG2, V domains shown, chimeric: human variable domains, mouse IgG2 Fc (H2M prefix)) VH: EVQLVESGGGLVRPGGSLRLSCAASGFTFTSYAMNWVRQAPGKGLEWVSSISSYSSYIYIADSVKGRFTLSRDNAKNSLYLQMHSLRPEDTAVYFCAREGYSAYSYFDFWGRGTLVTVSS VL: DIQMTQSPSTLSASVGDRVTITCRASQSVISWLAWYQQKPGKAPKLLIHRASSLESGVPSRFSGSGSGTEFTLTISGLQPDDFATYYCQQYNTYFPTFGQGTKVEVK	log10 of t1/2	1.28
H4H2797P (antibody, human IgG4, V domains shown, human IgG4 Fc (H4H prefix)) VH: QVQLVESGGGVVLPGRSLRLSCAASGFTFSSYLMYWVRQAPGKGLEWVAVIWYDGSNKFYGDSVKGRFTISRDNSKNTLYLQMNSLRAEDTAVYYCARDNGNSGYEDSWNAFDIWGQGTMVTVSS VL: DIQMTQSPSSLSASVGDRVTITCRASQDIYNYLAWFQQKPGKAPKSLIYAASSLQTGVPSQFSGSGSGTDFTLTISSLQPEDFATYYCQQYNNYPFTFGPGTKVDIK	log10 of t1/2	0.30
